// phosphorylation enrichment lookup, one value per entry
# tested-on: Jak2 (UniProt O60674)
# Sequence (O60674 whole entry, looked up): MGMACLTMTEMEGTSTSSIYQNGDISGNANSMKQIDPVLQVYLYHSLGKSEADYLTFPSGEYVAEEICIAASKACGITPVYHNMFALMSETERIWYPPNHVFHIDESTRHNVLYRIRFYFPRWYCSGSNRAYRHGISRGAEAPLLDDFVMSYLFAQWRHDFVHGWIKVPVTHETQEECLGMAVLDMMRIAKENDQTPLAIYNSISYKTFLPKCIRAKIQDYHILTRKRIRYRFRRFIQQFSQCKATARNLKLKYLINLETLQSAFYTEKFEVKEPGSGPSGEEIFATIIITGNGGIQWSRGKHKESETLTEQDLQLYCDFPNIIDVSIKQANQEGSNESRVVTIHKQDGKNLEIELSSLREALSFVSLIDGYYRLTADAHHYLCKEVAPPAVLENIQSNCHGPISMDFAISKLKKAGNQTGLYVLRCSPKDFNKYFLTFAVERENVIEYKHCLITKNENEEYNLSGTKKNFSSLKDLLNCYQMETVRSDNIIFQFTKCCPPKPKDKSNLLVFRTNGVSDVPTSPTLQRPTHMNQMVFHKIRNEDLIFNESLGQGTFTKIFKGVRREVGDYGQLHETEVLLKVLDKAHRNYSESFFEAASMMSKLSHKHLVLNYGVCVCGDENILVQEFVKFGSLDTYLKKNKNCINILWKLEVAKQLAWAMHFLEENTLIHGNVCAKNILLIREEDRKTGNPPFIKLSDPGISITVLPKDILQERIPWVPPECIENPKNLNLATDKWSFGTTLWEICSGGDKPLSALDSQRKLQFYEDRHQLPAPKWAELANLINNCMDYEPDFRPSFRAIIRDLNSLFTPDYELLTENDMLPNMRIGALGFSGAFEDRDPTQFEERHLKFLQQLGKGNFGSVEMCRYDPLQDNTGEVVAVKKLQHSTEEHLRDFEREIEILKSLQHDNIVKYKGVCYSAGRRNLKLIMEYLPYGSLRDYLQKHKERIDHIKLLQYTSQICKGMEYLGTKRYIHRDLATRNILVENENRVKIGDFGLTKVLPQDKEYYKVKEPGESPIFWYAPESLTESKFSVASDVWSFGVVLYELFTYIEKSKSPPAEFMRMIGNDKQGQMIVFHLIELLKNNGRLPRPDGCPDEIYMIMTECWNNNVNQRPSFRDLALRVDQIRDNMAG
# test-summary: phosphorylation enrichment, bacterial display (enrichment ratio); higher = better substrate or ligand; peptides without Tyr show the background;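 further: 11-residue human phosphosite peptides and single-mutation variants displayed on the E. coli surface, counted by deep sequencing, each peptide's frequency after selection divided by its frequency in the unselected input library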;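 further: frequency after pTyr selection over input frequency; kinase dosed for 20-30% of maximal phosphorylation in three min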
Please state the value as a number alone, without comment.

For orientation, consider the following solved cases.
sequence-record | tested-on | phosphorylation enrichment
MSIWPYLQKID [MFSD8_Y63] | Jak2 (UniProt O60674) | 0.627
VRRVGYVSGWG [HP_Y280_G276R] | Jak2 (UniProt O60674) | 0.514
SIKGKYVTALF [KCNH2_Y611_D609G_YF] | Jak2 (UniProt O60674) | 0.77

Continue with the next sequence.
For the sequence TDIVAYSGWVQ [SPTBN2_Y477_R480W] , what phosphorylation enrichment is on record?
0.82

###

# Test system: c-Abl (mouse)
# test-summary: phosphorylation enrichment, bacterial display (enrichment ratio); higher = better substrate or ligand; peptides without Tyr show the background
measurement-label: phosphorylation enrichment

For orientation, consider the following solved cases.
sequence-record | result
METKGYQSLPE [NR3C2_Y6_H7Q] | 0.683
RPSELYFSKIG [SMG1_Y2253_YF] | 0.687
DGTESYLTVSS [PLK1_Y462] | 0.687
KPNMNYDKLSQ [FLI1_Y332_R337Q] | 0.431
IQTDGDRAPEA [UHMK1_Y197_Y197D] | 0.79

For the sequence QSSALYEDRFL [ASS1_Y83_YF] , what phosphorylation enrichment is on record?
1.08

For the sequence PYTDPYYDYEI [ZC3H18_Y371_A368T] , what phosphorylation enrichment is on record?
1.59

For the sequence GISDEYHVIRR [GCDH_Y398_H403R] , what phosphorylation enrichment is on record?
0.607

For the sequence WRVIGYHVVVW [ATP13A2_Y50] , what phosphorylation enrichment is on record?
0.903

###

# tested-on: Hck (UniProt P08631)
# Sequence (P08631 whole entry, looked up): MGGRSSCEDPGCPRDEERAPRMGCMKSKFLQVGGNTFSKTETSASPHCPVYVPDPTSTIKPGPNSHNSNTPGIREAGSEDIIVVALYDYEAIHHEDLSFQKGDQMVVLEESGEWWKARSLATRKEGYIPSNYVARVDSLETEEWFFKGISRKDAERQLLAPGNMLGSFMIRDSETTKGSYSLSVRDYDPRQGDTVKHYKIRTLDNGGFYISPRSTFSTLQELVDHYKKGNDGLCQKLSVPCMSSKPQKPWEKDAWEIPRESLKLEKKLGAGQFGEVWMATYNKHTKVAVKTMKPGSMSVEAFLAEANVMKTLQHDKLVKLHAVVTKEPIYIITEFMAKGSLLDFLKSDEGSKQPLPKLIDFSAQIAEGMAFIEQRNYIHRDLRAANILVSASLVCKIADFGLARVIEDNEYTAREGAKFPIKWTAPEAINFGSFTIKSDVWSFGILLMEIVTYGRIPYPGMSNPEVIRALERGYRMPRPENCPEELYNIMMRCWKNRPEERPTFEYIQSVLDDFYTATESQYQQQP
# test-summary: phosphorylation enrichment, bacterial display (enrichment ratio); higher = better substrate or ligand; peptides without Tyr show the background
// phosphorylation enrichment lookup, one value per entry
Please state the value as a number alone, without comment.

For orientation, consider the following solved cases.
sequence-record | phosphorylation enrichment
AKKVFYVIETR [SHH_Y253] | 0.422
ENRLDYGSAWA [AR_Y395_P392R] | 0.311
TNYPLYLRSLE [MTM1_Y71_R69P] | 0.654

For the sequence KFVKMCDNHQL [MYO9A_Y203_Y203C_YF] , what phosphorylation enrichment is on record?
0.42

For the sequence GPCKAYELSQR [SETX_Y1297_R1294C] , what phosphorylation enrichment is on record?
0.467

For the sequence YGCGMYSHLQG [LGR4_Y848_D844G] , what phosphorylation enrichment is on record?
4.44

For the sequence LECEWYKNGVK [TTN_Y2112_P2107L] , what phosphorylation enrichment is on record?
0.931

For the sequence RQQQDYWLKDV [ANPEP_Y600_I603K] , what phosphorylation enrichment is on record?
0.322

For the sequence EALDFYGEVKT [PTEN_Y155_R159K] , what phosphorylation enrichment is on record?
1.15

For the sequence LKVDVYGRSHK [FUT3_Y222] , what phosphorylation enrichment is on record?
0.625

For the sequence RLLVLYPWTQR [HBB_Y36_V35L] , what phosphorylation enrichment is on record?
0.782

For the sequence AGADGYDYLAP [FOXL2_Y186_G187D] , what phosphorylation enrichment is on record?
0.903

For the sequence SIKGKYVTALF [KCNH2_Y611_D609G_YF] , what phosphorylation enrichment is on record?
0.408

All values here come from the supplement of paper PMC10065799.
